These entries and their values trace back to patent US20230192860A1.

Biological target: T1, hVISTA-ECD 6-His tag (human, UniProt Q9H7M9 33-193)
T1 construct: also called monovalent hVISTA-ECD; human VISTA
T1 sequence (Q9H7M9 other isoform, or with tags, fused parts or gaps limits assumed): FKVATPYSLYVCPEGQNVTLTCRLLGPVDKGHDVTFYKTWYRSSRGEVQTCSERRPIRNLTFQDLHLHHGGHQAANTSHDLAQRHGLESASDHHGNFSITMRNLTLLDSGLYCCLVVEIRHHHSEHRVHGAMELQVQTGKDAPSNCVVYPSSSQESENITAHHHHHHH
Assay: SPR, Ab on Protein A, hVISTA analyte, pH 6.45
READOUT_TYPE: koff (s⁻¹)

BINDER | NUMERIC_VALUE
P1-070976 (41F11_VH_T28P_Y50W_S55E_D95H_L96E_P97E_Y100E; Vk_A64G) (antibody, V domains shown, They look like Kabat positions on the mature VH, but no numbering scheme is stated; also called P1-070976-11) VH: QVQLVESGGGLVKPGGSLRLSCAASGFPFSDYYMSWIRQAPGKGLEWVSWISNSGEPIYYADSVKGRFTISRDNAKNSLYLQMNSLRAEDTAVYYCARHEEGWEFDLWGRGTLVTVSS VL: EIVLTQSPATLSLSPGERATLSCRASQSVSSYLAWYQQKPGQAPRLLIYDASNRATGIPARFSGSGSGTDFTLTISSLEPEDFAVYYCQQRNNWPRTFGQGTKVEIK | 0.0039
